assay: Cytotoxicity against human NCM460 cells assessed as reduction in cell viability incubated for 72 hrs by CCK-8 assay; assay type: toxicity, cell-based
The following compounds are listed with their measured IC50 at 72 h values.

>  <Smiles Record>
CC[C@H](C)[C@@H]1OC(=O)C(C)(C)C(=O)[C@@H](Cc2ccccc2)OC(=O)[C@H](C(C)C)OC(=O)[C@@H](NC(=O)c2ccccc2F)[C@@H](C)OC1=O

>  <IC50 at 72 h>
> 20 µM

$$$$
>  <Smiles Record>
CC[C@H](C)[C@@H]1OC(=O)C(C)(C)C(=O)[C@H](Cc2ccccc2)OC(=O)[C@H](C(C)C)OC(=O)[C@@H](NC(=O)c2ccccc2F)[C@@H](C)OC1=O

>  <IC50 at 72 h>
> 20 µM

$$$$
>  <Smiles Record>
CC[C@H](C)[C@@H]1OC(=O)C(C)(C)C(=O)[C@H](Cc2ccccc2)OC(=O)[C@H](C(C)C)OC(=O)[C@@H](NC(=O)c2cccc(O)c2)[C@@H](C)OC1=O

>  <IC50 at 72 h>
> 20 µM

$$$$

// IC50 at 72 h value for `CC[C@H](C)[C@@H]1OC(=O)C(C)(C)C(=O)[C@@H](Cc2ccccc2)OC(=O)[C@H](C(C)C)OC(=O)[C@@H](NC(=O)c2ccccc2O)[C@@H](C)OC1=O` : 6.6 µM

// IC50 at 72 h value for `CC[C@H](C)[C@@H]1OC(=O)C(C)(C)C(=O)[C@@H](Cc2ccccc2)OC(=O)[C@H](C(C)C)OC(=O)[C@@H](NC(=O)c2cccc(F)c2)[C@@H](C)OC1=O` : > 20 µM

// IC50 at 72 h value for `CC[C@H](C)[C@@H]1OC(=O)C(C)(C)[C@@H](O)[C@@H](Cc2ccccc2)OC(=O)[C@H](C(C)C)OC(=O)[C@@H](NC(=O)c2cccc(NC=O)c2O)[C@@H](C)OC1=O` : 0.00024 µM

// IC50 at 72 h value for `CC[C@H](C)[C@@H]1OC(=O)C(C)(C)C(=O)[C@@H](Cc2ccccc2)OC(=O)[C@H](C(C)C)OC(=O)[C@@H](NC(=O)c2ccccc2)[C@@H](C)OC1=O` : > 20 µM

// IC50 at 72 h value for `CC[C@H](C)[C@@H]1OC(=O)C(C)(C)C(=O)[C@H](Cc2ccccc2)OC(=O)[C@H](C(C)C)OC(=O)[C@@H](NC(=O)c2cccc(F)c2)[C@@H](C)OC1=O` : > 20 µM

// IC50 at 72 h value for `CC[C@H](C)[C@@H]1OC(=O)C(C)(C)C(=O)[C@@H](Cc2ccccc2)OC(=O)[C@H](C(C)C)OC(=O)[C@@H](NC(=O)c2cccc(O)c2)[C@@H](C)OC1=O` : > 20 µM

// IC50 at 72 h value for `CC[C@H](C)[C@@H]1OC(=O)C(C)(C)C(=O)[C@H](Cc2ccccc2)OC(=O)[C@H](C(C)C)OC(=O)[C@@H](NC(=O)c2ccccc2)[C@@H](C)OC1=O` : > 20 µM

###

system: A549; assay: Cytotoxicity against human A549 cells expressing K-Ras […] mutant assessed as reduction in cell viability incubated for 72 hrs by CCK-8 assay; assay type: functional, cell-based; settings: A549, 72 h
Parameter: pIC50
Note on pIC50: it is the negative log10 of concentration, concentration in mol/L.

The examples below pair each entry with its known result.
>  <Smiles Record>
CC[C@H](C)[C@@H]1OC(=O)C(C)(C)C(=O)[C@@H](Cc2ccccc2)OC(=O)[C@H](C(C)C)OC(=O)[C@@H](NC(=O)c2ccccc2)[C@@H](C)OC1=O

>  <pIC50>
6.48

$$$$
>  <Smiles Record>
CC[C@H](C)[C@@H]1OC(=O)C(C)(C)C(=O)[C@@H](Cc2ccccc2)OC(=O)[C@H](C(C)C)OC(=O)[C@@H](NC(=O)c2ccccc2F)[C@@H](C)OC1=O

>  <pIC50>
5.37

$$$$
>  <Smiles Record>
CC[C@H](C)[C@@H]1OC(=O)C(C)(C)C(=O)[C@@H](Cc2ccccc2)OC(=O)[C@H](C(C)C)OC(=O)[C@@H](NC(=O)c2ccccc2O)[C@@H](C)OC1=O

>  <pIC50>
5.01

$$$$
>  <Smiles Record>
CC[C@H](C)[C@@H]1OC(=O)C(C)(C)C(=O)[C@@H](Cc2ccccc2)OC(=O)[C@H](C(C)C)OC(=O)[C@@H](NC(=O)c2cccc(F)c2)[C@@H](C)OC1=O

>  <pIC50>
4.95

$$$$
>  <Smiles Record>
CC[C@H](C)[C@@H]1OC(=O)C(C)(C)[C@@H](O)[C@@H](Cc2ccccc2)OC(=O)[C@H](C(C)C)OC(=O)[C@@H](NC(=O)c2cccc(NC=O)c2O)[C@@H](C)OC1=O

>  <pIC50>
10.40

$$$$

Continue with the molecule presented below.
// pIC50 value for `CC[C@H](C)[C@@H]1OC(=O)C(C)(C)C(=O)[C@@H](Cc2ccccc2)OC(=O)[C@H](C(C)C)OC(=O)[C@@H](NC(=O)c2cccc(O)c2)[C@@H](C)OC1=O` : 5.00

###

The following compounds are listed with their measured IC50 values.
system: DLD-1; assay: Cytotoxicity against human DLD-1 cells expressing K-Ras G13D mutant assessed as reduction in cell viability incubated for 72 hrs by CCK-8 assay; assay type: functional, cell-based; conditions: DLD-1, 72 h
API: value field is a number in nM; no unit string.

>  <Smiles Record>
CC[C@H](C)[C@@H]1OC(=O)C(C)(C)[C@@H](O)[C@@H](Cc2ccccc2)OC(=O)[C@H](C(C)C)OC(=O)[C@@H](NC(=O)c2cccc(NC=O)c2O)[C@@H](C)OC1=O

>  <Parameter>
IC50

>  <Result Value>
59

$$$$
>  <Smiles Record>
CC[C@H](C)[C@@H]1OC(=O)C(C)(C)C(=O)[C@H](Cc2ccccc2)OC(=O)[C@H](C(C)C)OC(=O)[C@@H](NC(=O)c2ccccc2)[C@@H](C)OC1=O

>  <Parameter>
IC50

>  <Result Value>
1900

$$$$

Continue with the compound presented below.
// IC50 value for `CC[C@H](C)[C@@H]1OC(=O)C(C)(C)C(=O)[C@@H](Cc2ccccc2)OC(=O)[C@H](C(C)C)OC(=O)[C@@H](NC(=O)c2ccccc2)[C@@H](C)OC1=O` : 70

###

test system: DLD-1; experiment: Cytotoxicity against human DLD-1 cells expressing K-Ras G13D mutant assessed as reduction in cell viability incubated for 72 hrs by CCK-8 assay; type: functional, cell-based; details: DLD-1, 72 h
Parameter: IC50 (nM)
API: value field is a number in nM; no unit string.

The examples below pair each entry with its known result.
>  <Smiles Record>
CC[C@H](C)[C@@H]1OC(=O)C(C)(C)C(=O)[C@@H](Cc2ccccc2)OC(=O)[C@H](C(C)C)OC(=O)[C@@H](NC(=O)c2ccccc2F)[C@@H](C)OC1=O

>  <IC50 / nM>
600

$$$$
>  <Smiles Record>
CC[C@H](C)[C@@H]1OC(=O)C(C)(C)C(=O)[C@@H](Cc2ccccc2)OC(=O)[C@H](C(C)C)OC(=O)[C@@H](NC(=O)c2ccccc2O)[C@@H](C)OC1=O

>  <IC50 / nM>
2800

$$$$
>  <Smiles Record>
CC[C@H](C)[C@@H]1OC(=O)C(C)(C)C(=O)[C@H](Cc2ccccc2)OC(=O)[C@H](C(C)C)OC(=O)[C@@H](NC(=O)c2ccccc2F)[C@@H](C)OC1=O

>  <IC50 / nM>
2600

$$$$
>  <Smiles Record>
CC[C@H](C)[C@@H]1OC(=O)C(C)(C)C(=O)[C@H](Cc2ccccc2)OC(=O)[C@H](C(C)C)OC(=O)[C@@H](NC(=O)c2cccc(F)c2)[C@@H](C)OC1=O

>  <IC50 / nM>
3500

$$$$

// IC50 value for `CC[C@H](C)[C@@H]1OC(=O)C(C)(C)C(=O)[C@@H](Cc2ccccc2)OC(=O)[C@H](C(C)C)OC(=O)[C@@H](NC(=O)c2cccc(F)c2)[C@@H](C)OC1=O` : 2700
